Experiment: Pharmacokinetic evaluation after intravenous or gavage administration to rats
Format: in vivo, SD rats
Conditions: SD, rat, plasma, po; rats, i.g group, 5 mg/kg; read-out: Cmax

- STRUCTURE AS SMILES: "CN1CCC(=C(F)c2cccc(NC(=O)c3c(F)cc(F)cc3F)n2)CC1"
  Cmax / ng/mL: 71.8

###

Test: Pharmacokinetic evaluation after intravenous or gavage administration to dogs
Type: in vivo, Beagle dogs
Conditions: Beagle, dog, in vivo, iv, 0.5 mg/kg
RECORDED ENDPOINT: half-life (h)

- STRUCTURE AS SMILES: "CCN1CCC(=C(F)c2cccc(NC(=O)c3c(F)cc(F)cc3F)n2)CC1"
  EXPERIMENTAL VALUE: 1.06
